- Target under test: T1, human EphA7 (Homo sapiens, UniProt Q15375)
- T1 construct: a protein of the extracellular region of each human Eph receptor fused with the SEAP protein and the His tag; made in house; host or cells: Expi293F cells (culture supernatant)
- T1 sequence (Q15375 28-555 limits assumed): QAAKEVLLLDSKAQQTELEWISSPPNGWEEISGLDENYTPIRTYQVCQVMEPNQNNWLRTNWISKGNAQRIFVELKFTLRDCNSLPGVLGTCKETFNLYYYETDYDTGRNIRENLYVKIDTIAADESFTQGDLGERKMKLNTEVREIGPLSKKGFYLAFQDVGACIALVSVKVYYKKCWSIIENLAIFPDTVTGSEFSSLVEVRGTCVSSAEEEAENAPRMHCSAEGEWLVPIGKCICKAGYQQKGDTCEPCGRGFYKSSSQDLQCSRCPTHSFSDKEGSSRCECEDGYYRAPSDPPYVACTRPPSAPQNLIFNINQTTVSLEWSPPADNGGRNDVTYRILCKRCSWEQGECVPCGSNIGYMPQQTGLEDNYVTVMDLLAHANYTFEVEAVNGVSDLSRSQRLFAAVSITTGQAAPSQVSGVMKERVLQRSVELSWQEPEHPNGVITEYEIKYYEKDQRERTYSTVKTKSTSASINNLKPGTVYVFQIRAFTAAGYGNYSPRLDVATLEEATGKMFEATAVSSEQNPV
- Experiment description: Selectivity ELISA of humanized antibodies for human Eph receptor
- Format: binding
- Measurement setup: coated protein 1 nM
- Description: According to the method described in Example 7, a DNA sequence encoding the signal sequence and the extracellular region of each human Eph receptor (EphA1, EphA2, EphA3, EphA4, EphA5, EphA6, EphA7, EphA8, EphA10, EphB1, EphB2, EphB3, EphB4, and EphB6) was amplified by RT-PCR using tissue-derived total RNA and cloned into a pENTR1A vector (Invitrogen/Life Technologies) having a DNA sequence encoding SEAP protein and histidine tag. […]
Value kind: hEphA7-SEAP-: absorbance at 450 nm, percentage with respect to hEphA4-SEAP-His as 100%
Write the figure, then the unit, nothing else.

The following molecules have reported results that may help.
>>> result("143 (antibody, V domains shown, synthetic humanized antibody heavy chain variable region sequence; synthetic humanized antibody light chain variable region sequence) VH: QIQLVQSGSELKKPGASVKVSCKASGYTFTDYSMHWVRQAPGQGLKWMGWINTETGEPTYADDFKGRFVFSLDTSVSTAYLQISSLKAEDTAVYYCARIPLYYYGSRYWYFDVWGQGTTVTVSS VL: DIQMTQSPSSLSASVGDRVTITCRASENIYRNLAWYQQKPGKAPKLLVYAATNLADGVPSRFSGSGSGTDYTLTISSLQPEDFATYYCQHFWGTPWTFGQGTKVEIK")
"5.8%"
>>> result("71 (antibody, V domains shown, synthetic humanized antibody heavy chain variable region sequence; synthetic humanized antibody light chain variable region sequence) VH: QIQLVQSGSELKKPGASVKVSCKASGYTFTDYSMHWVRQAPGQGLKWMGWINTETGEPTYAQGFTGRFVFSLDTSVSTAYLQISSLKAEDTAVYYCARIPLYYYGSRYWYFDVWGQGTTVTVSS VL: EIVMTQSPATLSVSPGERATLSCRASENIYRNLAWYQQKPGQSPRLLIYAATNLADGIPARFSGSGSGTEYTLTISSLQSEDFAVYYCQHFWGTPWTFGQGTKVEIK")
"5.2%"
>>> result("153 (antibody, V domains shown, synthetic humanized antibody heavy chain variable region sequence; synthetic humanized antibody light chain variable region sequence) VH: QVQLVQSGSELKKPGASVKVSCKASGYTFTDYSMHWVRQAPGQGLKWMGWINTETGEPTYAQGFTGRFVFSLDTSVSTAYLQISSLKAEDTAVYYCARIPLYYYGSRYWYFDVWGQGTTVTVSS VL: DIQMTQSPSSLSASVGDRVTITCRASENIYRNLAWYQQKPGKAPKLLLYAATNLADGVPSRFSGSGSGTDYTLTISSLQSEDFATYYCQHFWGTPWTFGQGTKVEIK")
"6.2%"

We now examine a further molecule.
Quote hEphA7-SEAP-: absorbance at 450 nm, percentage with respect to hEphA4-SEAP-His as 100% reported for 135 (antibody, V domains shown, synthetic humanized antibody heavy chain variable region sequence; synthetic humanized antibody light chain variable region sequence) VH: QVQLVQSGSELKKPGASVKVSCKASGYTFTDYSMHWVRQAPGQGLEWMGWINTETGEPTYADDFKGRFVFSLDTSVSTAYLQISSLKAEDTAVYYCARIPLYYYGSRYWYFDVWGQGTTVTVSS VL: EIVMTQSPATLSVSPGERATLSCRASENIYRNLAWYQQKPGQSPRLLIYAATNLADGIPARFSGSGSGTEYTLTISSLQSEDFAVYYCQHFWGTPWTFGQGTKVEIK please.
5.2%
